- SYSTEM TESTED: human RORγ-LBD (Homo sapiens, UniProt P51449)
- Construct: made in house; host or cells: E. coli (BL-21)
- ASSAY NOTES: ROR gamma coactivator peptide recruitment Alphascreen assay (RORγ-LBD binding to GRIP1 coactivator peptide)
- Assay type: biochemical
- CONDITION LABEL: 5 nM human RORγ-LBD, 30 nM 7-β-hydroxycholesterol, 50 nM biotinylated GRIP1 coactivator peptide, overnight incubation at room temperature; read-out: result (pIC50, RORγ coactivator peptide recruitment Alphascreen assay) (converted)
Listing of recorded IC50 by entry.
# answer = value followed by unit

In the examples that follow, each entry is paired with its recorded IC50.
CC1(C)[C@@H]2C[C@H](N(CC(=O)c3c(Cl)cccc3Cl)C(=O)c3cnn([C@H]4C[C@@H](CC(=O)O)C4)c3C(F)(F)F)C[C@@H]21 [Example 846]: 2.4 nM
CC1(C)C[C@H]1N(CC(=O)c1c(Cl)cncc1Cl)C(=O)c1cnn([C@H]2CC[C@](C)(C(=O)O)CC2)c1C(F)(F)F: 32.4 nM

Given the compound CC(C)(C)CN(CC(=O)c1c(Cl)cncc1Cl)C(=O)c1cnn([C@@H]2CC[C@]3(C(=O)O)CCC[C@@H]3C2)c1C(F)(F)F [Example 877] and test system human RORγ-LBD (Homo sapiens, UniProt P51449), the measured IC50 is 6.17 nM

----------
Entries and their IC50
- SYSTEM TESTED: human RORγ-LBD (Homo sapiens, UniProt P51449)
- Construct: made in house; host or cells: E. coli (BL-21)
- Sequence (P51449 262-518): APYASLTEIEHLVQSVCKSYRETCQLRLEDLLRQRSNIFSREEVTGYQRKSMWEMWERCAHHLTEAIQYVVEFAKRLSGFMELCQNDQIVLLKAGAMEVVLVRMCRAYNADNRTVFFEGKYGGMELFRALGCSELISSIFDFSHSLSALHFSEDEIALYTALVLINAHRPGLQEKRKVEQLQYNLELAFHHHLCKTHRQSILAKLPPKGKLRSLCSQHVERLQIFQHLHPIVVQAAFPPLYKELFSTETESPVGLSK
- ASSAY NOTES: ROR gamma coactivator peptide recruitment Alphascreen assay (RORγ-LBD binding to GRIP1 coactivator peptide)
- Assay type: biochemical
- CONDITION LABEL: 5 nM human RORγ-LBD, 30 nM 7-β-hydroxycholesterol, 50 nM biotinylated GRIP1 coactivator peptide, overnight incubation at room temperature; read-out: result (pIC50, RORγ coactivator peptide recruitment Alphascreen assay) (converted)
- Source text: Alphascreen™ is a bead-based amplified homogenous luminescent proximity assay that can be used for measuring the effect of compounds on protein-protein interactions. When biological interactions bring donor and acceptor beads into close proximity, reactive oxygen, generated upon laser excitation of the donor beads, initiates a luminescence/fluorescence cascade in the acceptor beads that leads to a highly amplified signal that can be measured as light in the 520-620 nm range. […]
Your answer should be a plain number; it is taken to be in nM.

Please review the following examples before continuing.
C[C@]1(CN(CCc2c(Cl)cncc2Cl)C(=O)c2cnn([C@H]3CC[C@](C)(C(=O)O)CC3)c2C(F)(F)F)CCCO1: 9.55
C[C@]1(C(=O)O)CC[C@H](n2ncc(C(=O)N(CC(=O)c3c(Cl)cccc3Cl)[C@@H]3CC34CCCC4)c2C(F)(F)F)CC1: 4.37
CC1(CN(CC(=O)c2c(Cl)cncc2Cl)C(=O)c2cnn([C@H]3CC[C@H](C(=O)O)C(C)(C)C3)c2C(F)(F)F)CCC1 (single isomer, unassigned) [Example 807]: 45.7
C[C@]1(C(=O)O)CC[C@H](n2ncc(C(=O)N(CC(=O)c3c(Cl)cccc3Cl)[C@@H]3CCC34CCC4)c2C(F)(F)F)CC1: 57.5
C[C@@H]1CC(n2ncc(C(=O)N(CC(=O)c3c(Cl)cccc3Cl)CC(C)(C)C)c2C(F)(F)F)CCC1C(=O)O (stereo in doubt): 2.95

The reported value for `CC1(C)C[C@H](Cc2c(Cl)cncc2Cl)N(C(=O)c2cnn([C@H]3CC[C@](C)(C(=O)O)CC3)c2C(F)(F)F)C1` in terms of IC50 is 110

`C=CCC1(CC=C)C[C@H](Cc2c(Cl)cncc2Cl)N(C(=O)c2cnn([C@H]3CC[C@](C)(C(=O)O)CC3)c2C(F)(F)F)C1` has a reported IC50 of 10.5

Memo: `C[C@@]1(CN(CCc2c(Cl)cncc2Cl)C(=O)c2cnn([C@H]3CC[C@](C)(C(=O)O)CC3)c2C(F)(F)F)CCCO1` , reported IC50: 50.1

What the record says about `C[C@]1(CN(CC(=O)c2c(Cl)cccc2Cl)C(=O)c2cnn([C@H]3CC[C@](C)(C(=O)O)CC3)c2C(F)(F)F)CCCO1` : IC50 is 4.79

For record `Cc1cc(Cl)c(C(=O)CN(CC2(F)CCCC2)C(=O)c2cnn([C@H]3CC[C@](C)(C(=O)O)CC3)c2C(F)(F)F)c(Cl)n1` the listed IC50 is 9.33

get_value(item= `COC1(CN(CC(=O)c2c(Cl)cncc2Cl)C(=O)c2cnn([C@H]3CC[C@](C)(C(=O)O)CC3)c2C(F)(F)F)CCCC1` , readout=IC50) returns 15.5

Form field IC50, entry `CCC1(CN(CC(=O)c2c(Cl)cncc2Cl)C(=O)c2cnn([C@H]3CC[C@](C)(C(=O)O)CC3)c2C(F)(F)F)CCC1` : 2.63

response.value for `C[C@]1(C(=O)O)CC[C@H](n2ncc(C(=O)N(CC(=O)c3c(Cl)cncc3Cl)C[C@@H]3CC3(F)F)c2C(F)(F)F)CC1` (field: IC50) = 7.24

What the record says about `Cc1cc(C)c(C(=O)CN(Cc2cc(F)cc(F)c2)C(=O)c2cnn([C@H]3CC[C@](C)(C(=O)O)CC3)c2C(F)(F)F)c(Cl)n1` : IC50 is 7.94

For `COC1(CN(CC(=O)c2c(Cl)cncc2Cl)C(=O)c2cnn([C@H]3CC[C@@H](C(=O)O)CC3)c2C(F)(F)F)CCCC1` the molecule record lists IC50 as 295

Value of measured IC50 for the entry `COC1(CN(CC(=O)c2c(Cl)cncc2Cl)C(=O)c2cnn([C@H]3CC[C@](C)(C(=O)O)CC3)c2C(F)(F)F)CC1` : 30.2

molecule `CC(C)(C)CN(CC(=O)c1c(Cl)cncc1Cl)C(=O)c1cnn([C@H]2CC[C@@](C)(C(=O)O)C[C@@H]2F)c1C(F)(F)F` , IC50 observed: 575

Lab book: IC50 of `CO[C@H](CN(CC(C)(C)C)C(=O)c1cnn([C@H]2CC[C@H](C(=O)O)CC2)c1C(F)(F)F)c1c(Cl)cc(C)cc1Cl` noted as 51.3

----------
- SYSTEM TESTED: human RORγ-LBD (Homo sapiens)
- Construct: made in house; host or cells: E. coli (BL-21)
- Sequence (P51449 262-518): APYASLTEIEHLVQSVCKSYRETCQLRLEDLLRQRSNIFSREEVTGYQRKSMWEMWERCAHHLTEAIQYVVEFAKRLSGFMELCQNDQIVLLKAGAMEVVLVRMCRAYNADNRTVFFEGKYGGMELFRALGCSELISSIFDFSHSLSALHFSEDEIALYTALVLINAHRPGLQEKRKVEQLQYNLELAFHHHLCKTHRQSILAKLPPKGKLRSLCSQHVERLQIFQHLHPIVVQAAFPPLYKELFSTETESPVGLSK
- ASSAY NOTES: ROR gamma coactivator peptide recruitment Alphascreen assay (RORγ-LBD binding to GRIP1 coactivator peptide)
- Format: biochemical
- CONDITION LABEL: 5 nM human RORγ-LBD, 30 nM 7-β-hydroxycholesterol, 50 nM biotinylated GRIP1 coactivator peptide, overnight incubation at room temperature; read-out: result (pIC50, RORγ coactivator peptide recruitment Alphascreen assay) (converted)
IC50 strictly under 30 nM means class 1; at 30 nM or over means class 0.

Past entries and their recorded results:
CC1(C)CC(N(CC(=O)c2c(Cl)cncc2Cl)C(=O)c2cnn([C@H]3CC[C@](C)(C(=O)O)CC3)c2C(F)(F)F)C1: class 0
C[C@]1(C(=O)O)CC[C@H](n2ncc(C(=O)N(CC(=O)c3c(Cl)cccc3Cl)CC3CC4(CC4)C3)c2C(F)(F)F)CC1: class 1
C[C@@H]1C[C@@H](n2ncc(C(=O)N(CCC(F)(F)F)CC(=O)c3c(Cl)cncc3Cl)c2C(F)(F)F)CC[C@@H]1C(=O)O: class 0
CC(C)(C)CN(CC(=O)c1c(Cl)cncc1Cl)C(=O)c1cnn([C@H]2C[C@]3(C[C@H](C(=O)O)C3)C2)c1C(F)(F)F (stereo partly drawn) [Example 771]: class 1
C[C@@H]1C[C@@H](n2ncc(C(=O)N(CC(=O)c3c(Cl)cccc3Cl)CC3CC(C)(C)C3)c2C(F)(F)F)CC[C@@H]1C(=O)O (stereo in doubt) [Example 572]: class 1

Problem: I wonder whether `CC1(C)CC[C@H]1N(CC(=O)c1c(Cl)cccc1Cl)C(=O)c1cnn([C@H]2CC[C@](C)(C(=O)O)CC2)c1C(F)(F)F` has IC50 below 30 nM. Can you tell?
Result: class 1

Problem: Strictly below 30 nM: is that where IC50 of `C[C@]1(CC(=O)O)CC[C@H](n2ncc(C(=O)N(CC(=O)c3c(Cl)cncc3Cl)Cc3cc(F)cc(F)c3)c2C(F)(F)F)CC1` sits?
Result: class 1

Problem: Confirm or reject: IC50 of `Cc1cc(Cl)c(C(=O)CN(CCOC(C)(C)C)C(=O)c2cnn([C@H]3CC[C@](C)(C(=O)O)CC3)c2C(F)(F)F)c(Cl)n1` lies strictly below 30 nM
Result: class 1

Problem: For this compound, is IC50 lower than 30 nM? `O=C(CN(C(=O)c1cnn([C@H]2CC[C@@H](C(=O)O)CC2)c1C(F)(F)F)[C@H]1CC12CCCC2)c1c(Cl)cccc1Cl`
Result: class 0

Problem: For the compound `COc1cccc(F)c1C(=O)CN(CC1CC(C)(C)C1)C(=O)c1cnn([C@H]2CC[C@](C)(C(=O)O)CC2)c1C(F)(F)F` , is IC50 under 30 nM?
Result: class 0

Problem: Dear colleague, could you confirm whether IC50 of `CC1(C)CC[C@@H]1N(CC(=O)c1c(Cl)cncc1Cl)C(=O)c1cnn([C@H]2CC[C@@H](C(=O)O)CC2)c1C(F)(F)F` falls below 30 nM? Thanks.
Result: class 0

Problem: Strictly below 30 nM in IC50? `COc1cc(Cl)c(C(=O)CN(CC2(F)CCCC2)C(=O)c2cnn([C@H]3CC[C@@H](C(=O)O)CC3)c2C(F)(F)F)c(Cl)c1`
Result: class 0

Problem: # check: IC50 < 30 nM for `CC(C)(C)CN(CC(=O)c1c(Cl)cncc1Cl)C(=O)c1cnn([C@@H]2CCCC[C@H]2CC(=O)O)c1C(F)(F)F`
Result: class 0

Problem: Input `C[C@@]1(CN(CC(=O)c2c(Cl)ccc(F)c2Cl)C(=O)c2cnn([C@H]3CC[C@](C)(C(=O)O)CC3)c2C(F)(F)F)CCCO1` ; condition: IC50 strictly below 30 nM. Does it hold?
Result: class 1
